# TGT: T1, human iRhom2, endogenously expressed (human, UniProt Q6PJF5 1-856)
# T1 sequence: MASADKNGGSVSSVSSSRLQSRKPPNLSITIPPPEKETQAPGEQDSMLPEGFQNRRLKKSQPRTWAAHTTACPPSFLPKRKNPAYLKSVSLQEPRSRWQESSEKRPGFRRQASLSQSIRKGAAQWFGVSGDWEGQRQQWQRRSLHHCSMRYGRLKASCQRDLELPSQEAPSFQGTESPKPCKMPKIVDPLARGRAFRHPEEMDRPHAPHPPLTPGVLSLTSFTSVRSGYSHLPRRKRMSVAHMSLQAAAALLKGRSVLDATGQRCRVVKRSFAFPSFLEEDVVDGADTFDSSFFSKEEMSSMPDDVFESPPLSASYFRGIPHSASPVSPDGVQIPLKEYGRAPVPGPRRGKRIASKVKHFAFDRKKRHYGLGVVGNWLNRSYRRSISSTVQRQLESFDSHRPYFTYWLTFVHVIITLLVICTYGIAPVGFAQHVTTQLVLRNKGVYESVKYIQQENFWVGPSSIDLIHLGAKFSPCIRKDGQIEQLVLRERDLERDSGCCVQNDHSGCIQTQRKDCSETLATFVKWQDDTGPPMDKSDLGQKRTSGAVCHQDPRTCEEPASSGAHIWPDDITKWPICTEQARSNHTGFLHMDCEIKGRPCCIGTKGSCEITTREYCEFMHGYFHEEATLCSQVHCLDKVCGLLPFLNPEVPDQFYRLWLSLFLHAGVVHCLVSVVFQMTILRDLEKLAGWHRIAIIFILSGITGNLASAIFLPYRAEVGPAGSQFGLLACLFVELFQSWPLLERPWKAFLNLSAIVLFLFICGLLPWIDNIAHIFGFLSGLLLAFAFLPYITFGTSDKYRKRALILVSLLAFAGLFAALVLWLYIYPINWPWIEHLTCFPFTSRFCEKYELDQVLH
# PROTOCOL: cell-based or functional assay
READOUT TYPE: PMA-induced HB-EGF release from THP-1 cells, percent inhibition, 3 µg/ml (%)
Expressed in %, but write only the number.

antibody 42 (antibody, V domains shown, mouse IgG, kappa light chain; also called clone #42; purified antibody 42) VH: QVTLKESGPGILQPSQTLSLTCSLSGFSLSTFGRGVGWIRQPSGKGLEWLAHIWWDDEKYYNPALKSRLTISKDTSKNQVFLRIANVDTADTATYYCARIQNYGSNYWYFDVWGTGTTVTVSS VL: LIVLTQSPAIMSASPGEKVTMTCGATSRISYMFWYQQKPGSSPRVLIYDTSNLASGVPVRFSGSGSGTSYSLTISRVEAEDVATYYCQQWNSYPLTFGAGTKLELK :: 76.6
antibody 44 (antibody, V domains shown, mouse IgG, kappa light chain; also called clone #44; purified antibody 44) VH: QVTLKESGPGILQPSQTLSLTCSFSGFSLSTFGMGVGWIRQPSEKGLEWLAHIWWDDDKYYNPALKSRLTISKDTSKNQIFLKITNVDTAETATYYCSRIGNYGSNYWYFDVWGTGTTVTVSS VL: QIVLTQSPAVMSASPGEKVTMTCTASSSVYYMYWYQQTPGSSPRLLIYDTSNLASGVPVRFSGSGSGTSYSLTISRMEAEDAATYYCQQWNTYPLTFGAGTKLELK :: 67.5

Please turn your attention to the following entry.
In: State, in one line, measured PMA-induced HB-EGF release from THP-1 cells, percent inhibition, 3 µg/ml of antibody 34 (antibody, V domains shown, mouse IgG, kappa light chain; also called clone #34; purified antibody 34) VH: QVTLKESGPGILQPSQTLSLTCSFSGFSLSTFSLGVGWIRQSSGKGLEWLAHIWWDDEKYYNPALKSRLTISKDTSKNQVFLKIANVDAADTATYYCARAYYSKSYYALDYWGQGTSVTVSS VL: DIQMTQSPSSLSASLGERVSLTCRASQEISGYLSWLQQKPDGTIKRLIYAASTLDSGVPKRFSGSRSGSDYSLAISSLESEDFADYYCLQYANFPFTFGSGTKLEIK
Out: 64.2
